target: T1, RSV F subtype B, furin-cleaved ectodomain stabilized in the prefusion conformation (DS-Cav1) (Respiratory syncytial virus subtype B); experiment: BLI, IgG on AHQ sensor, 100 nM antigen
T1 construct: extracellular domain; Trimeric soluble antigen; also called Prefusion subtype B
Quantity name: Kd (nM)
Reply with just the number (in nM).

Kd lookup needed for ADI-18973 (antibody, V domains shown, full-length IgG from yeast) VH: QVQLVQSGPALVKPTQTLTLTCTFGGFSLSRHGMRVTWIRQAPGKALEWLGHIDWDDDKFYRTSLKTRLTISKDPSNNEVVLKMTNMDHVDTATYYCALMRPFWSRDDYYYSIAVWGKGTTVTVSS VL: DIVLTQSPGTLSLSPGDRATLSCRASQSVGSGYVTWYQQKPGQAPRLLIYGASNRAEGIPDRFSGSGSGTDFTLTISGLESEDFVIYYCQLYHRSPGSASQTVWTFGQGTKVEIK , thanks.
2.63
